System: biotinyl-Trp-oxazolone
Assay: self-aminoacylation, catalytic enhancement (BWO) (fold over background); higher = more active; k-Seq, kA / k0A0; sequences stand for … in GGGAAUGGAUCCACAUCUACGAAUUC…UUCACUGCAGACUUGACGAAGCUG
This sample holds only a part of the variants without activity.
Criterion: self-aminoacylation meeting or surpassing 4. Met: yes (1). Not met: no (0).

Example results:
{"CHAIN SEQUENCE": "GCACACUCCAAGCAAUCGGUC [Fam1B.1 aminoacylation ribozyme variant]", "ASSIGNED CATEGORY": "no (0)"}
{"CHAIN SEQUENCE": "CCCCUCUUCAAGCAAUCGGUC [Fam1B.1 aminoacylation ribozyme variant]", "ASSIGNED CATEGORY": "yes (1)"}

I'd appreciate it if you could say whether AUACUUCAAACAAUCGGUCGG [Fam1A.1 aminoacylation ribozyme variant] has self-aminoacylation at least equal to 4.
yes (1)

I'd appreciate it if you could say whether AAGUGUGCUAACAGUCGCAAG [Fam3.1 aminoacylation ribozyme variant] has self-aminoacylation at least equal to 4.
yes (1)

I'd appreciate it if you could say whether AGGUUUGCUAAAAGUCGCAAG [Fam3.1 aminoacylation ribozyme variant] has self-aminoacylation at least equal to 4.
yes (1)

I'd appreciate it if you could say whether CGCCACUUCAAGCAAUCGGUC [Fam1B.1 aminoacylation ribozyme variant] has self-aminoacylation at least equal to 4.
yes (1)

I'd appreciate it if you could say whether CCACACUUCAAGCAAUCGGCU [Fam1B.1 aminoacylation ribozyme variant] has self-aminoacylation at least equal to 4.
no (0)

I'd appreciate it if you could say whether CCAUACUUCAAGCAAUCGGCC [Fam1B.1 aminoacylation ribozyme variant] has self-aminoacylation at least equal to 4.
no (0)

###

The entries below are paired with their reported self-aminoacylation.
Tested on: biotinyl-Leu-oxazolone
Assay: self-aminoacylation, catalytic enhancement (BLO) (fold over background); higher = more active; k-Seq, kA / k0A0; sequences stand for … in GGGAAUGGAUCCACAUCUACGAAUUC…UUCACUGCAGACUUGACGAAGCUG
Fewer inactive variants are shown than the library holds.
Note: the reply should be a number with no unit written.

Known results for sequences:
{"CHAIN SEQUENCE": "CCCCACUUCAAGCAAUCGGUA [Fam1B.1 aminoacylation ribozyme variant]", "TARGET OR TEST SYSTEM": "biotinyl-Leu-oxazolone", "self-aminoacylation": 2.71}
{"CHAIN SEQUENCE": "CCAUGCUUCAAGCAAUCGGUC [Fam1B.1 aminoacylation ribozyme variant]", "TARGET OR TEST SYSTEM": "biotinyl-Leu-oxazolone", "self-aminoacylation": 2.66}
{"CHAIN SEQUENCE": "AUUAUCCUCGUCAUCGAGUGA [Fam2.1 aminoacylation ribozyme variant]", "TARGET OR TEST SYSTEM": "biotinyl-Leu-oxazolone", "self-aminoacylation": 2.75}
{"CHAIN SEQUENCE": "CCACACUUCAAGCAAUCGCUU [Fam1B.1 aminoacylation ribozyme variant]", "TARGET OR TEST SYSTEM": "biotinyl-Leu-oxazolone", "self-aminoacylation": 2.09}
{"CHAIN SEQUENCE": "CCAUACUUCAAGCAAUCGGCC [Fam1B.1 aminoacylation ribozyme variant]", "TARGET OR TEST SYSTEM": "biotinyl-Leu-oxazolone", "self-aminoacylation": 2.33}

Please supply the value of reported self-aminoacylation for the item CGCCACUUCAAGCAAUCGGUC [Fam1B.1 aminoacylation ribozyme variant]
2.26

Please supply the value of reported self-aminoacylation for the item CCUCGCUUCAAGCAAUCGGUC [Fam1B.1 aminoacylation ribozyme variant]
2.24

Please supply the value of reported self-aminoacylation for the item CUACGUCAAACAAUCGCUCUG [Fam1A.1 aminoacylation ribozyme variant]
2.07

###

System: biotinyl-Trp-oxazolone
Experiment: self-aminoacylation, catalytic enhancement (BWO) (fold over background); higher = more active; k-Seq, kA / k0A0; sequences stand for … in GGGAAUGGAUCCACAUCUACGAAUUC…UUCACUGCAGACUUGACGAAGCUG
This sample holds only a part of the variants without activity.
Criterion: self-aminoacylation meeting or surpassing 5. Met: 1.0. Not met: 0.0.

Example results:
{"CHAIN SEQUENCE": "CUACUUCAAACAAUCAGUCGG [Fam1A.1 aminoacylation ribozyme variant]", "ASSIGNED CATEGORY": 1.0}
{"CHAIN SEQUENCE": "GUACUACAAACAAUCGGUCUG [Fam1A.1 aminoacylation ribozyme variant]", "ASSIGNED CATEGORY": 0.0}
{"CHAIN SEQUENCE": "CCCCACGUCAAGCAAUCGGUC [Fam1B.1 aminoacylation ribozyme variant]", "ASSIGNED CATEGORY": 0.0}

I'd appreciate it if you could say whether CUCCUUCAAUCAAUCGGUCUG [Fam1A.1 aminoacylation ribozyme variant] has self-aminoacylation at least equal to 5.
1.0

I'd appreciate it if you could say whether AUACUUCAAACAAUCGGGCUG [Fam1A.1 aminoacylation ribozyme variant] has self-aminoacylation at least equal to 5.
0.0

I'd appreciate it if you could say whether CCAACCUUCAAGCAAUCGGUC [Fam1B.1 aminoacylation ribozyme variant] has self-aminoacylation at least equal to 5.
1.0

I'd appreciate it if you could say whether CUACUUCAACCAAUCGGUCGG [Fam1A.1 aminoacylation ribozyme variant] has self-aminoacylation at least equal to 5.
1.0

I'd appreciate it if you could say whether CUGCUUCAAAUAAUCGGUCUG [Fam1A.1 aminoacylation ribozyme variant] has self-aminoacylation at least equal to 5.
1.0

I'd appreciate it if you could say whether CCAGACUUCAAUCAAUCGGUC [Fam1B.1 aminoacylation ribozyme variant] has self-aminoacylation at least equal to 5.
1.0

I'd appreciate it if you could say whether AAGUUUGGUCAUAGUCGCAAG [Fam3.1 aminoacylation ribozyme variant] has self-aminoacylation at least equal to 5.
0.0

I'd appreciate it if you could say whether CCACACUUCAAGCCAUCGCUC [Fam1B.1 aminoacylation ribozyme variant] has self-aminoacylation at least equal to 5.
0.0

I'd appreciate it if you could say whether CAACUUCAAACAAUCAGUCUG [Fam1A.1 aminoacylation ribozyme variant] has self-aminoacylation at least equal to 5.
1.0

I'd appreciate it if you could say whether CCUCGCUUCAAGCAAUCGGUC [Fam1B.1 aminoacylation ribozyme variant] has self-aminoacylation at least equal to 5.
1.0

###

Test system: biotinyl-Trp-oxazolone
Assay: self-aminoacylation, catalytic enhancement (BWO) (fold over background); higher = more active; k-Seq, kA / k0A0; sequences stand for … in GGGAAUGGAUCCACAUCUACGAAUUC…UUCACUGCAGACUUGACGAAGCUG
Variants at the floor of the assay were thinned out.
Criterion: self-aminoacylation meeting or surpassing 4. Met: true (1). Not met: false (0).

{"CHAIN SEQUENCE": "AUUACCCUGGUCAUUGAGUAA [Fam2.1 aminoacylation ribozyme variant]", "TARGET OR TEST SYSTEM": "biotinyl-Trp-oxazolone", "ASSIGNED CATEGORY": "false (0)"}

I'd appreciate it if you could say whether CCAGCCUUCAAGCAAUCGGUC [Fam1B.1 aminoacylation ribozyme variant] has self-aminoacylation at least equal to 4.
true (1)

I'd appreciate it if you could say whether GUACUUCAAGCAAUCGGUCUG [Fam1A.1 aminoacylation ribozyme variant] has self-aminoacylation at least equal to 4.
true (1)

I'd appreciate it if you could say whether AUUACCCUGGUCCUCGAGGGA [Fam2.1 aminoacylation ribozyme variant] has self-aminoacylation at least equal to 4.
false (0)

###

System: biotinyl-Phe-oxazolone
Assay: self-aminoacylation, catalytic enhancement (BFO) (fold over background); higher = more active; k-Seq, kA / k0A0; sequences stand for … in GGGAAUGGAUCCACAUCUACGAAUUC…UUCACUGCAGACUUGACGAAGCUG
Variants at the floor of the assay were thinned out.
Criterion: self-aminoacylation meeting or surpassing 4. Met: T. Not met: F.

Example results:
{"CHAIN SEQUENCE": "GAGUUUUCUAAUAGUCGCAAG [Fam3.1 aminoacylation ribozyme variant]", "ASSIGNED CATEGORY": "F"}
{"CHAIN SEQUENCE": "CCAGCCUUCAAGCAAUCGGUC [Fam1B.1 aminoacylation ribozyme variant]", "ASSIGNED CATEGORY": "T"}
{"CHAIN SEQUENCE": "AAGUUGGCUAAUAGUCGCAAG [Fam3.1 aminoacylation ribozyme variant]", "ASSIGNED CATEGORY": "T"}

I'd appreciate it if you could say whether ACGUUUGCUAAUAGUCCCAAG [Fam3.1 aminoacylation ribozyme variant] has self-aminoacylation at least equal to 4.
F

I'd appreciate it if you could say whether CAACUUCAAACAAUCAGUCUG [Fam1A.1 aminoacylation ribozyme variant] has self-aminoacylation at least equal to 4.
T

I'd appreciate it if you could say whether GAGUUUGCUAAAAGUCGCAAG [Fam3.1 aminoacylation ribozyme variant] has self-aminoacylation at least equal to 4.
T

I'd appreciate it if you could say whether CCACGCUUCAAACAAUCGGUC [Fam1B.1 aminoacylation ribozyme variant] has self-aminoacylation at least equal to 4.
T

I'd appreciate it if you could say whether AUACUUCAAACAAUCGGUCGG [Fam1A.1 aminoacylation ribozyme variant] has self-aminoacylation at least equal to 4.
T

I'd appreciate it if you could say whether AUUCACCCAGGUCGUCGGGUG [Fam2.2 aminoacylation ribozyme variant] has self-aminoacylation at least equal to 4.
T

I'd appreciate it if you could say whether AAGUUCGCGAAUAGUCGCAAG [Fam3.1 aminoacylation ribozyme variant] has self-aminoacylation at least equal to 4.
T

I'd appreciate it if you could say whether AUUACCCUGGCCAUCGACUGA [Fam2.1 aminoacylation ribozyme variant] has self-aminoacylation at least equal to 4.
F

I'd appreciate it if you could say whether CUGCUACAAACAAUCGGUCUG [Fam1A.1 aminoacylation ribozyme variant] has self-aminoacylation at least equal to 4.
F
